experimental-system: Avi-KRAS G12D (1-169) GppNHp/RAF1 RBD-3xFLAG (52-151) (Homo sapiens, UniProt P01116, G12D)
Construct: Avi-KRAS G12D (1-169)
Sequence (P01116 1-169 isoform P01116-2 G12D): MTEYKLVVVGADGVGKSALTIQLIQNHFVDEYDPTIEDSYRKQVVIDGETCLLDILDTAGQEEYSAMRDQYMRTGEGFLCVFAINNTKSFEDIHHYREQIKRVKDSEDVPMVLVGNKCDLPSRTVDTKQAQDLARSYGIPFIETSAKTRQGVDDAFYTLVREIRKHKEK
assay-explanation: Raf1-KRAS G12D-GppNHP disruption HTRF assay (Biological Example 1)
Format: binding
stated-conditions: KRAS G12D, GppNHp-loaded; Table 11
pIC50: −log10 of the molar value.

[
  {
    "molecule": "N#Cc1c(N)sc2c(F)ccc(-c3c(C(F)(F)F)cc4c(N5CCOCC5)nc(OC[C@@]56CCCN5C[C@H](F)C6)nc4c3F)c12 (single isomer, unassigned) [Compound 199]",
    "pIC50": "< 5.00"
  },
  {
    "molecule": "CN(c1nc(OCC23CCCN2CCC3)nc2c(F)c(-c3ccc(F)c4sc(N)nc34)c(C(F)(F)F)cc12)C1CC(O)C12CCCC2 (single isomer, unassigned) [Compound 10]",
    "pIC50": "< 5.00"
  },
  {
    "molecule": "N#Cc1c(N)sc2c(F)ccc(-c3c(C(F)(F)F)cc4cnc(OC[C@@]56CCCN5C[C@H](F)C6)nc4c3F)c12",
    "pIC50": "6.00 to 7.00"
  },
  {
    "molecule": "CCC(=O)N1CC[C@@H](N(C)c2nc(OC[C@@]34CCCN3C[C@H](F)C4)nc3c(F)c(-c4ccc(F)c5sc(N)c(C#N)c45)c(C(F)(F)F)cc23)[C@H]1C [Compound 116]",
    "pIC50": "6.00 to 7.00"
  },
  {
    "molecule": "N#Cc1c(N)sc2c(F)ccc(-c3c(C(F)(F)F)cc4c(N5CC[C@H](O)C5)nc(OC[C@@]56CCCN5C[C@H](F)C6)nc4c3F)c12",
    "pIC50": "6.00 to 7.00"
  }
]

---

Each entry below lists one item and its recorded IC50 value.
experimental-system: Avi-KRAS G12D (2-169) GTP/RAF1 RBD-3xFLAG (51-131) (Homo sapiens, UniProt P01116, G12D)
Construct: Avi-KRAS G12D (2-169)
Sequence (P01116 2-169 isoform P01116-2 G12D): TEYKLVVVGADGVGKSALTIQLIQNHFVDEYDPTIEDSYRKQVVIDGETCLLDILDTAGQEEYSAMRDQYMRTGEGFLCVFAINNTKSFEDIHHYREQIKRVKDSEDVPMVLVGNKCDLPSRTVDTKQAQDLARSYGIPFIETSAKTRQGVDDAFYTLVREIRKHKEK
assay-explanation: Raf1-KRAS G12D-GTP disruption HTRF assay (Biological Example 3)
Type: binding
stated-conditions: KRAS G12D, GTP-loaded
Protocol: Biological Example 3: Disrupting RAS-Effector Binding HTRF Assay A protein:protein interaction (PPI) Homogeneous Time Resolved Fluorescence (HTRF) assay was used to determine the effectiveness of compounds in disrupting KRAS protein and effector (RAF1) binding. […] Plates were analyzed on an Envision plate reader using the following setting: Excitation 320 nm, Bandwidth 75 nm; Emission 615 nm, Bandwidth 85 nm; Gain 100%; Flashes 100; Lag 60 μs. […] Data was plotted and analyzed using Prism 8. […]
endpoint: IC50

[
  {
    "compound": "CCN(c1nc(OC[C@@]23CCCN2C[C@H](F)C3)nc2c(F)c(-c3ccc(F)c4sc(N)c(C#N)c34)c(C(F)(F)F)cc12)[C@H]1CCN(C(=O)c2ncc(C)s2)C1 (atropisomer, axis not shown) [Compound 919]",
    "endpoint": "IC50",
    "measured-value": "100 to 1000 nM"
  },
  {
    "compound": "N#Cc1c(N)sc2c(F)ccc(-c3c(C(F)(F)F)cc4c(N5C[C@H]6C[C@@H]5CO6)nc(OC[C@@]56CCCN5C[C@H](F)C6)nc4c3F)c12 (single isomer, unassigned) [Compound 287]",
    "endpoint": "IC50",
    "measured-value": "100 to 1000 nM"
  }
]

---

experimental-system: Avi-KRAS G12D (2-169) GTP/RAF1 RBD-3xFLAG (51-131) (Homo sapiens, UniProt P01116, G12D)
Construct: Avi-KRAS G12D (2-169)
assay-explanation: Raf1-KRAS G12D-GTP disruption HTRF assay (Biological Example 3)
Format: binding
stated-conditions: KRAS G12D, GTP-loaded
pIC50: −log10 of the molar value.
Each entry below lists one item and its recorded pIC50 value.

[
  {
    "compound": "Cc1c(C(=O)N(C)C)nn2c1CN(c1nc(OC[C@@]34CCCN3C[C@H](F)C4)nc3c(F)c(-c4ccc(F)c5sc(N)c(C#N)c45)c(C(F)(F)F)cc13)CC2 [Compound 501]",
    "pIC50": "6.00 to 7.00"
  },
  {
    "compound": "CCN(c1nc(OC[C@@]23CCCN2C[C@H](F)C3)nc2c(F)c(-c3ccc(F)c4sc(N)c(C#N)c34)c(C(F)(F)F)cc12)[C@H]1C[C@H](COC)N(C(=O)C2CC2(F)F)C1 (some centres unmarked)",
    "pIC50": "6.00 to 7.00"
  },
  {
    "compound": "CCN(c1nc(OC[C@@]23CCCN2C[C@H](F)C3)nc2c(F)c(-c3ccc(F)c4sc(N)c(C#N)c34)c(C(F)(F)F)cc12)[C@H]1CCN(C(=O)OC)C1 [Compound 394]",
    "pIC50": "6.00 to 7.00"
  },
  {
    "compound": "C[C@H]1Cn2nc(C(=O)N(C)C)cc2CN1c1nc(OC[C@@]23CCCN2C[C@H](F)C3)nc2c(F)c(-c3ccc(F)c4sc(N)c(C#N)c34)c(C(F)(F)F)cc12 (atropisomer, axis not shown)",
    "pIC50": "6.00 to 7.00"
  },
  {
    "compound": "CCN(c1nc(OC[C@@]23CCCN2C[C@H](F)C3)nc2c(F)c(-c3ccc(F)c4sc(N)c(C#N)c34)c(C(F)(F)F)cc12)[C@H]1CCN(C(=O)N2CC(F)C2)[C@H]1C (atropisomer, axis not shown)",
    "pIC50": "5.00 to 6.00"
  },
  {
    "compound": "CCN(c1nc(OC[C@@]23CCCN2C[C@H](F)C3)nc2c(F)c(-c3ccc(F)c4sc(N)c(C#N)c34)c(C(F)(F)F)cc12)[C@H]1C[C@H]2CCC(=O)N2C1 (atropisomer, axis not shown; (aR))",
    "pIC50": "≥ 7.00"
  },
  {
    "compound": "CCN(c1nc(OC[C@@]23CCCN2C[C@H](F)C3)nc2c(F)c(-c3ccc(F)c4sc(N)c(C#N)c34)c(C(F)(F)F)cc12)[C@H]1C[C@H](COC)N(C(=O)[C@@H]2C[C@@H]2F)C1 (atropisomer, axis not shown)",
    "pIC50": "6.00 to 7.00"
  },
  {
    "compound": "CCN(c1nc(OC[C@@]23CCCN2C[C@H](F)C3)nc2c(F)c(-c3ccc(F)c4sc(N)c(C#N)c34)c(C(F)(F)F)cc12)[C@H]1C[C@H](COC)N(C(=O)N2CC(F)C2)C1",
    "pIC50": "5.00 to 6.00"
  },
  {
    "compound": "CCN(c1nc(OC[C@@]23CCCN2C[C@H](F)C3)nc2c(F)c(-c3ccc(F)c4sc(N)c(C#N)c34)c(C(F)(F)F)cc12)[C@H]1CCN(C(=O)c2ccc(C)s2)C1 (atropisomer, axis not shown)",
    "pIC50": "6.00 to 7.00"
  },
  {
    "compound": "CCN(c1nc(OC[C@@]23CCCN2C[C@H](F)C3)nc2c(F)c(-c3ccc(F)c4sc(N)c(C#N)c34)c(C(F)(F)F)cc12)[C@H]1C[C@@H](C)N(C(=O)[C@H]2CCO2)C1 (atropisomer, axis not shown)",
    "pIC50": "6.00 to 7.00"
  },
  {
    "compound": "CCN(c1nc(OC[C@@]23CCCN2C[C@H](F)C3)nc2c(F)c(-c3ccc(F)c4sc(N)c(C#N)c34)c(C(F)(F)F)cc12)[C@H]1C[C@H](C)N(C(=O)C2CC(OC)C2)C1 (some centres unmarked)",
    "pIC50": "6.00 to 7.00"
  },
  {
    "compound": "CCN(c1nc(OC[C@@]23CCCN2C[C@H](F)C3)nc2c(F)c(-c3ccc(F)c4sc(N)c(C#N)c34)c(C(F)(F)F)cc12)[C@H]1C[C@H](COC)N(C(=O)OC2COC2)C1 (atropisomer, axis not shown)",
    "pIC50": "6.00 to 7.00"
  },
  {
    "compound": "CCN(c1nc(OC[C@@]23CCCN2C[C@H](F)C3)nc2c(F)c(-c3ccc(F)c4sc(N)c(C#N)c34)c(C(F)(F)F)cc12)[C@H]1CCN(C(=O)c2ncc(C#N)s2)C1 (atropisomer, axis not shown)",
    "pIC50": "6.00 to 7.00"
  },
  {
    "compound": "CCN(c1nc(OC[C@@]23CCCN2C[C@H](F)C3)nc2c(F)c(-c3ccc(F)c4sc(N)c(C#N)c34)c(C(F)(F)F)cc12)[C@H]1C[C@H](COC)N(C(=O)[C@H]2CCO2)C1 (atropisomer, axis not shown)",
    "pIC50": "6.00 to 7.00"
  },
  {
    "compound": "CCN(c1nc(OC[C@@]23CCCN2C[C@H](F)C3)nc2c(F)c(-c3ccc(F)c4sc(N)c(C#N)c34)c(C(F)(F)F)cc12)[C@H]1CCN(C(=O)C2C[C@H]2F)[C@@H]1C (some centres unmarked)",
    "pIC50": "6.00 to 7.00"
  },
  {
    "compound": "CCN(c1nc(OC[C@]23CCCN2C[C@H](F)C3)nc2c(F)c(-c3ccc(F)c4sc(N)c(C#N)c34)c(C(F)(F)F)cc12)[C@H]1CCN(C(=O)OC)C1 (atropisomer, axis not shown) [Compound 954]",
    "pIC50": "≥ 7.00"
  },
  {
    "compound": "CCN(c1nc(OC[C@@]23CCCN2C[C@H](F)C3)nc2c(F)c(-c3ccc(F)c4sc(N)c(C#N)c34)c(C(F)(F)F)cc12)[C@H]1C[C@H]2CN(C3CCC3)C(=O)N2[C@@H]1C (atropisomer, axis not shown)",
    "pIC50": "6.00 to 7.00"
  }
]
